From: the Immune Epitope Database (IEDB)

# targetEntity: HLA-A*32:01
# methodSummary: IEDB peptide-MHC binding, purified MHC/competitive/radioactivity; filed as Kd, often an IC50 or EC50 that approximates it; bounds were set here for any values at or beyond the usual limits of such assays
# experimentalParameters: source organism: Mammarenavirus juninense
attributeMeasured: Kd (nM)
Give a bare numeral; the unit nM is implied.

The sequence identified as KTGEKSRCY registered its Kd at 116

* * *

# targetEntity: HLA-B*53:01
# methodSummary: IEDB peptide-MHC binding, purified MHC/competitive/radioactivity; filed as Kd, often an IC50 or EC50 that approximates it; bounds were set here for any values at or beyond the usual limits of such assays
# experimentalParameters: source organism: Mammarenavirus lassaense
attributeMeasured: Kd (nM)
Just the number please, in nM, no unit attached.

The reported value for IPFNVVTAM in terms of Kd is 73.9

* * *

# targetEntity: HLA-B*15:01
# methodSummary: IEDB peptide-MHC binding, purified MHC/competitive/fluorescence; filed as Kd, often an IC50 or EC50 that approximates it; bounds were set here for any values at or beyond the usual limits of such assays
# experimentalParameters: source organism: Camelpox virus CMS
attributeMeasured: Kd

Memo: WVIDTLNGI , reported Kd: ≥ 20 µM

* * *

# targetEntity: HLA-B*46:01
# methodSummary: IEDB peptide-MHC binding, purified MHC/competitive/fluorescence; filed as Kd, often an IC50 or EC50 that approximates it; bounds were set here for any values at or beyond the usual limits of such assays
# experimentalParameters: source organism: Rickettsia felis URRWXCal2
attributeMeasured: Kd
Quick note: unit goes after the number.

Documented Kd of FMYALSRAF : 6.6 nM

* * *

# targetEntity: HLA-A*31:01
# methodSummary: IEDB peptide-MHC binding, purified MHC/direct/fluorescence; filed as Kd, often an IC50 or EC50 that approximates it; bounds were set here for any values at or beyond the usual limits of such assays
# experimentalParameters: source organism: Corynebacterium glutamicum
attributeMeasured: Kd

Entry YELLRYNEY , HLA-A*31:01 data, Kd value: ≥ 20 µM

* * *

# targetEntity: HLA-B*57:01
# methodSummary: IEDB peptide-MHC binding, purified MHC/direct/fluorescence; filed as Kd, often an IC50 or EC50 that approximates it; bounds were set here for any values at or beyond the usual limits of such assays
# experimentalParameters: source organism: Mycobacterium tuberculosis
pKd: −log10 of the molar value.
attributeMeasured: pKd

AVFLSYIGY | ≤ 4.70

Consider the additional sequence presented here.
The value of pKd measured for the sequence GPAGYTAAL turned out to be ≤ 4.70

* * *

# targetEntity: HLA-B*58:01
# methodSummary: IEDB peptide-MHC binding, purified MHC/direct/fluorescence; filed as Kd, often an IC50 or EC50 that approximates it; bounds were set here for any values at or beyond the usual limits of such assays
# experimentalParameters: source organism: Haemophilus influenzae
attributeMeasured: Kd (nM)
Value expressed in nM; do not type the unit.

Data point: LMTAISQGI ; Kd = 367

* * *

# targetEntity: HLA-B*45:01
# methodSummary: IEDB peptide-MHC binding, purified MHC/competitive/radioactivity; filed as Kd, often an IC50 or EC50 that approximates it; bounds were set here for any values at or beyond the usual limits of such assays
# experimentalParameters: source organism: Mammarenavirus juninense
attributeMeasured: pKd
Entry type: numeric. Quantity: pKd, the -log10 of concentration in molar units.

# pKd of HESFDLAGLF = 5.75

* * *

# targetEntity: HLA-A*01:01
# methodSummary: IEDB peptide-MHC binding, purified MHC/direct/fluorescence; filed as Kd, often an IC50 or EC50 that approximates it; bounds were set here for any values at or beyond the usual limits of such assays
# experimentalParameters: source organism: Influenza A virus (A/swine/Korea/S190/2004(H9N2))
attributeMeasured: Kd

Per the reported HLA-A*01:01 data, ATTHSWIPK has Kd of ≥ 20 µM

* * *

# targetEntity: HLA-A*26:01
# methodSummary: IEDB peptide-MHC binding, purified MHC/competitive/radioactivity; filed as Kd, often an IC50 or EC50 that approximates it; bounds were set here for any values at or beyond the usual limits of such assays
# experimentalParameters: source organism: Dengue virus 3 Martinique/1243/1999
In this section we review reported pKd values for a set of sequences.
Scale note: pKd = -log10(concentration in M).

Before answering, review these 3 worked examples.
STTEAILPEY | 7.32
ELKGMSYAM | 5.76
EMCDDTVTY | 4.95

For the next question, use this sequence.
Memo: EIPLQWIASA , reported pKd: 5.58

* * *

# targetEntity: HLA-B*07:02
# methodSummary: IEDB peptide-MHC binding, purified MHC/competitive/fluorescence; filed as Kd, often an IC50 or EC50 that approximates it; bounds were set here for any values at or beyond the usual limits of such assays
# experimentalParameters: source organism: Yersinia mollaretii ATCC 43969
attributeMeasured: Kd (nM)
The reply should be a number in nM, with the unit left off.

Entry under test: MPMYAIHKV . Its Kd was 26.7

* * *

# targetEntity: HLA-A*26:01
# methodSummary: IEDB peptide-MHC binding, purified MHC/competitive/radioactivity; filed as Kd, often an IC50 or EC50 that approximates it; bounds were set here for any values at or beyond the usual limits of such assays
# experimentalParameters: source organism: Dengue virus 1 Brazil/97-11/1997
attributeMeasured: Kd (µM)
Note: unit µM is implicit; provide only the numeric part.

Record YVVIGLLFM , field Kd: 12.5

* * *

# targetEntity: HLA-A*02:01
# methodSummary: IEDB peptide-MHC binding, purified MHC/competitive/fluorescence; bounds were set here for any values at or beyond the usual limits of such assays
# experimentalParameters: source organism: Vaccinia virus Copenhagen
pIC50: −log10 of the molar value.
attributeMeasured: pIC50

Value of pIC50 reported for the sequence LSVETITEK is ≤ 3.87

* * *

# targetEntity: HLA-B*48:01
# methodSummary: IEDB peptide-MHC binding, purified MHC/direct/fluorescence; filed as Kd, often an IC50 or EC50 that approximates it; bounds were set here for any values at or beyond the usual limits of such assays
# experimentalParameters: source organism: Vibrio parahaemolyticus
attributeMeasured: Kd

Summary: RSTLANGWY , HLA-B*48:01, Kd = ≥ 20 µM

* * *

# targetEntity: HLA-A*29:02
# methodSummary: IEDB peptide-MHC binding, purified MHC/direct/fluorescence; filed as Kd, often an IC50 or EC50 that approximates it; bounds were set here for any values at or beyond the usual limits of such assays
# experimentalParameters: source organism: Toxoplasma gondii
pKd: −log10 of the molar value.
attributeMeasured: pKd

Lab note: measured pKd of LPPVVPPLI was ≤ 4.70

* * *

# targetEntity: HLA-B*57:01
# methodSummary: IEDB peptide-MHC binding, purified MHC/competitive/fluorescence; filed as Kd, often an IC50 or EC50 that approximates it; bounds were set here for any values at or beyond the usual limits of such assays
# experimentalParameters: source organism: Vibrio parahaemolyticus K5030
pKd: −log10 of the molar value.
attributeMeasured: pKd

With HLA-B*57:01 as the test system, AGGWVLWKV showed pKd of ≤ 4.70

* * *

# targetEntity: HLA-B*45:06
# methodSummary: IEDB peptide-MHC binding, purified MHC/competitive/fluorescence; filed as Kd, often an IC50 or EC50 that approximates it; bounds were set here for any values at or beyond the usual limits of such assays
# experimentalParameters: source organism: Sudan ebolavirus
attributeMeasured: Kd

In plain terms, CTSSIQYHR has a documented Kd of ≥ 5 µM

* * *

# targetEntity: HLA-B*14:02
# methodSummary: IEDB peptide-MHC binding, purified MHC/competitive/fluorescence; filed as Kd, often an IC50 or EC50 that approximates it; bounds were set here for any values at or beyond the usual limits of such assays
# experimentalParameters: source organism: Entamoeba histolytica HM-1:IMSS
attributeMeasured: Kd

Entry under test: EVRKAIEFV . Its Kd was ≥ 5 µM

* * *

# targetEntity: HLA-A*11:01
# methodSummary: IEDB peptide-MHC binding, purified MHC/competitive/radioactivity; filed as Kd, often an IC50 or EC50 that approximates it; bounds were set here for any values at or beyond the usual limits of such assays
# experimentalParameters: source organism: Mammarenavirus brazilense
attributeMeasured: Kd (µM)
Hi! Could you send only the number? It should be in µM, unit omitted.

According to the records, this sequence LFFTTTLFLH displays Kd of 4.12

* * *

# targetEntity: HLA-A*30:01
# methodSummary: IEDB peptide-MHC binding, purified MHC/competitive/radioactivity; filed as Kd, often an IC50 or EC50 that approximates it; bounds were set here for any values at or beyond the usual limits of such assays
# experimentalParameters: source organism: Vaccinia virus WR
Overview of reported Kd across a group of sequences:
Give just the number in nM; leave the unit off.

HLSNSFFIK | 17.3
KQSQSYLTK | 158
FIFLKKNEL | 43.9
HIFYQLANV | 60.4
YVKFIYFIK | 60

Next, consider the following sequence.
Recorded Kd (sequence KVSPPSLGK ): 1.12
